Hello, the source for this data is ChEMBL document CHEMBL5346868, in case you need it.

Exercise: state measured selectivity ratio for each of the molecules provided.
# Assay comment: Selectivity index, ratio of CC50 for human RD cells to EC50 for antiviral activity against human Enterovirus 71
# Type: toxicity
# Applied conditions: read-out: Ratio CC50/EC50

Example entries and their recorded answers appear below.
Molecule	selectivity ratio
COC(=O)[C@H](CCSC[C@H]1O[C@@H](n2cnc3c(NCc4cccc(Cl)c4)ncnc32)[C@H](O)[C@@H]1O)NC(=O)C(F)(F)F	> 16.9
CSC[C@H]1O[C@@H](n2cnc3c(NCc4cccc(S(F)(F)(F)(F)F)c4)ncnc32)[C@H](O)[C@@H]1O	12.7
OC[C@H]1O[C@@H](n2cnc3c(NCc4cccc(C(F)(F)F)c4)ncnc32)[C@H](O)[C@@H]1O	> 2770
OC[C@H]1O[C@@H](n2ccc3c(NCc4cccc(C(F)(F)F)c4)ncnc32)[C@H](O)[C@@H]1O	> 1070

Report selectivity ratio for every entry below.
1. CSC[C@H]1O[C@@H](n2cnc3c(NCc4ccccc4Cl)ncnc32)[C@H](O)[C@@H]1O
2. OC[C@H]1O[C@@H](n2ccc3c(NCc4cccc(Cl)c4)ncnc32)[C@H](O)[C@@H]1O
3. Cc1cccc(CNc2ncnc3c2ncn3[C@@H]2O[C@H](CO)[C@@H](O)[C@H]2O)c1
4. OC[C@H]1O[C@@H](n2cnc3c(NCc4cccc(Cl)c4)ncnc32)[C@H](O)[C@@H]1O

Output line:
["> 38.3", "> 301", "> 1060", 403]
